Species: Rattus norvegicus
Assay: Selectivity ratio of IC50 for rat BuChE to rat IC50 for AchE
metric.name: Ratio IC50

compound.structure.string | metric.name | reported.result
CC1=C[C@H]2Cc3[nH]c(=O)ccc3[C@@]3(C1)[C@@H]2CCCN3C(=O)CN(C)CCCCCCCCCCN(C)Cc1ccc(F)cc1 | Ratio IC50 | 67
CC1=C[C@H]2Cc3[nH]c(=O)ccc3[C@@]3(C1)[C@@H]2CCCN3C(=O)CN(C)CCCN(C)CC(=O)N1CCC[C@@H]2[C@H]3C=C(C)C[C@]21c1ccc(=O)[nH]c1C3 | Ratio IC50 | 127
CC1=C[C@H]2Cc3[nH]c(=O)ccc3[C@@]3(C1)[C@@H]2CCCN3C(=O)CCN(C)CCCCCCCCCCN(C)CCC(=O)N1CCC[C@@H]2[C@H]3C=C(C)C[C@]21c1ccc(=O)[nH]c1C3 | Ratio IC50 | 5510
